These data points were gathered from patent US20160137639A1.

Subject of test: mouse RORγ (Mus musculus)
Construct: mouse, NM_011281.2 and from Ile251 to Lys516; expressed in transfected cells; host or cells: CHO cells (transient co-transfection with pG5-Luc reporter)
Sequence (P51450 251-516): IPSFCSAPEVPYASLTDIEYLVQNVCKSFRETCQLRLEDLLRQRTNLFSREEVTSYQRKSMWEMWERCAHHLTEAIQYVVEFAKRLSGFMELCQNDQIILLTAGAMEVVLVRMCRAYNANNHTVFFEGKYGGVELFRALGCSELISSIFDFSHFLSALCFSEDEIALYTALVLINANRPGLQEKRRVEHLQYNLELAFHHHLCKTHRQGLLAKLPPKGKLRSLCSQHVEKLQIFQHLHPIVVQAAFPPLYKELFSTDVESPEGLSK
Assay: Luciferase reporter gene assay of inhibitory effect against RORγ transcriptional activity (GAL4-mRORγ plasmid in CHO cells)
Assay type: cell-based
Measurement setup: read-out: LUC EC50 mRORg
Measured attribute: EC50

compound="COCC(C)(C)C[C@H]1C[C@@H](c2onc([C@@H](CCC(=O)O)CC(=O)Nc3ccc(CO)cc3Cl)c2C2CC2)C1 [Example F-724]" test_result="< 3 µM"
compound="CC(=O)N1C[C@H](C(=O)Nc2ccc(C)cc2C)[C@@H](c2nnc(-c3cc(CCC(C)C)on3)n2C2CC2)C1 [Example F-632]" test_result="< 3 µM"
compound="Cc1ccc(NC(=O)C[C@H](CCC(=O)O)c2onc([C@H]3C[C@@H](CC(C)(C)C)C3)c2C2CC2)c(Cl)c1 [Example F-715]" test_result="< 3 µM"
compound="Cc1ccc(NC(=O)C[C@H](CCc2noc(=O)[nH]2)c2noc([C@H]3C[C@@H](CC(C)C)C3)c2C2CC2)c(C)c1 [Example F-643]" test_result="< 3 µM"
compound="Cc1ccc(NC(=O)[C@H]2CN(C(=O)CN(C)C)C[C@@H]2c2nnc([C@H]3C[C@@H](CC(C)(C)C)C3)n2C2CC2)c(C)c1 [Example F-648]" test_result="< 3 µM"
compound="Cc1ccc(NC(=O)CCc2noc([C@H]3C[C@@H](CC(C)(C)C)C3)c2COCC(=O)O)c(Cl)c1 [Example F-704]" test_result="> 3 µM"

----------
Subject of test: human RORγ (Homo sapiens, UniProt P51449)
Construct: human, NM_005060.3 and from Ser253 to Lys518; expressed in transfected cells; host or cells: CHO cells (transient co-transfection with pG5-Luc reporter)
Sequence (P51449 253-518): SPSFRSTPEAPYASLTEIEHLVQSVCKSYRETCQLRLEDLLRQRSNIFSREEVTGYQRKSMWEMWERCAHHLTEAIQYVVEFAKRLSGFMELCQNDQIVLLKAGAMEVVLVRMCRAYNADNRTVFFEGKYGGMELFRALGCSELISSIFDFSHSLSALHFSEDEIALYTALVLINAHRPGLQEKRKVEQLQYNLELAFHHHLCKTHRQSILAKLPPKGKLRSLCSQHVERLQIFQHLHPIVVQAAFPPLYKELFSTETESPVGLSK
Assay: Luciferase reporter gene assay of inhibitory effect against RORγ transcriptional activity (GAL4-hRORγ plasmid in CHO cells)
Type: cell-based
Measurement setup: read-out: LUC EC50 (μM) hRORg
Measured attribute: EC50

compound="CC(=O)N1C[C@H](C(=O)Nc2ccc(C)cc2C)[C@@H](c2nnc(C3CN(C(=O)N(C)C(C)C)C3)n2C2CC2)C1 (racemic) [Example F-419]" test_result="> 3 µM"
compound="CC(C)CCc1nnc(CCC(=O)N[C@H](C)c2ccccc2)n1C1CC1 [Example F-63]" test_result="> 3 µM"
compound="Cc1ccc(NC(=O)CC(CC(=O)O)c2nnc(CCCC(C)C)n2C2CC2)c(C)c1 (racemic) [Example F-252]" test_result="> 3 µM"
compound="COc1cc(C)ccc1CNC(=O)[C@H]1CCCN(C)[C@@H]1c1nnc(CCC2CCCCC2)n1C1CC1 [Example F-267]" test_result="< 3 µM"
compound="CC(C)CCc1nnc(CCC(=O)NC2CCCCC2C)n1C1CC1 (stereo not shown) [Example F-102]" test_result="> 3 µM"
compound="Cc1ccc(NC(=O)C[C@H](CCC(=O)O)c2noc(-c3cn(CCC(C)(C)C)nc3C(F)(F)F)c2C2CC2)c(F)c1 [Example E-19]" test_result="> 3 µM"
compound="Cc1ccccc1CCNC(=O)CCc1nnc(CCC(C)C)n1C1CC1 [Example F-116]" test_result="> 3 µM"
compound="Cc1c(Cl)cccc1NC(=O)CC(CCCO)c1nnc(CCCC(C)C)n1C1CC1 (racemic) [Example F-212]" test_result="< 3 µM"
compound="COCCC(CC(=O)Nc1ccc(C)cc1C)c1nnc(CCC2CCCCC2)n1C1CC1 (racemic) [Example F-396]" test_result="< 3 µM"
compound="Cc1ccc(NC(=O)C[C@H](CCC(=O)O)c2noc(-c3cc(CC(C)C)nn3C)c2C2CC2)c(Cl)c1 [Example E-25]" test_result="> 3 µM"
compound="COc1c(CNC(=O)CCc2nnc(CCC(C)C)n2C2CC2)ccc(C)c1C [Example F-262]" test_result="> 3 µM"
compound="Cc1c(Cl)cccc1NC(=O)CCc1nnc(CCNC(C)C)n1C1CC1 [Example F-171]" test_result="> 3 µM"
compound="Cc1ccc(NC(=O)CC(CCO)c2nnc(CCC3CCCCC3)n2C2CC2)c(C)c1 (racemic) [Example F-248]" test_result="< 3 µM"
compound="Cc1ccc(NC(=O)CCc2nnc(CO)n2C2CC2)c(C)c1 [Example F-96]" test_result="> 3 µM"
compound="CC(=O)N1C[C@H](C(=O)Nc2ccc(C)cc2C)[C@@H](c2nnc(CCC3CC3(C)C)n2C2CC2)C1 (single isomer, unassigned) [Example F-328]" test_result="< 3 µM"
compound="CC(C)(C)C(F)(F)c1cc(-c2onc([C@@H](CCC(=O)O)CC(=O)Nc3ccc(F)cc3Cl)c2C2CC2)no1 [Example E-48]" test_result="< 3 µM"
compound="CC(=O)N1C[C@H](C(=O)Nc2ccc(C)cc2C)[C@@H](c2nnc(C3CC4(CCCCC4)C3)n2C2CC2)C1 [Example F-473]" test_result="< 3 µM"
compound="Cc1ccc(NC(=O)CC(c2nnc(CCCC(C)(C)C)n2C2CC2)C(C)C)c(C)c1 (racemic) [Example F-453]" test_result="< 3 µM"
compound="Cc1ccc(NC(=O)CC(Cc2ccccn2)c2nnc([C@H]3C[C@@H](CC(C)C)C3)n2C2CC2)c(C)c1 (mixture of isomers) [Example F-422]" test_result="< 3 µM"
compound="CC1(Cc2cc(-c3onc([C@@H](CCC(=O)O)CC(=O)Nc4ccc(F)cc4Cl)c3C3CC3)no2)CC1 [Example E-63]" test_result="< 3 µM"
compound="Cc1cccc(NC(=O)CCc2nnc(CCC(C)C)n2C2CC2)c1 [Example F-65]" test_result="> 3 µM"
compound="CCn1c(CCC(=O)Nc2cccc3ccccc23)nnc1CCC(C)(C)C [Example F-25]" test_result="> 3 µM"
compound="Cc1c(Cl)cccc1NC(=O)CC(CC(=O)O)c1nnc(CCCC(C)C)n1C1CC1 (racemic) [Example F-213]" test_result="> 3 µM"
compound="COc1cc(C)ccc1CNC(=O)CCc1nnc(CCC(C)C)n1C1CC1 [Example F-148]" test_result="< 3 µM"
compound="Cc1ccc(O)cc1NC(=O)CCc1nnc(CCC(C)C)n1C1CC1 [Example F-192]" test_result="> 3 µM"
compound="COc1cccc(C)c1NC(=O)CCc1nnc(CCC(C)C)n1C1CC1 [Example F-86]" test_result="> 3 µM"
compound="CCn1c(C(C)CC(=O)Nc2cccc3ccccc23)nnc1C1Cc2ccccc2C1 (racemic) [Example F-33]" test_result="< 3 µM"
compound="CC(=O)N1C[C@H](C(=O)Nc2ccc(C)cc2C)[C@@H](c2nnc(C3CC3CC(C)C)n2C2CC2)C1 (mixture of isomers) [Example F-340]" test_result="> 3 µM"
compound="Cc1ccc(NC(=O)[C@H]2CN(C)C(=O)[C@@H]2c2nnc(CCCC(C)(C)C)n2C2CC2)c(C)c1 [Example F-303]" test_result="< 3 µM"
compound="CC(=O)N1C[C@H](C(=O)Nc2ccc(C)cc2C)[C@@H](c2nnc(CCC3CCCCC3)n2C2CC2)C1 [Example F-374]" test_result="< 3 µM"
compound="COc1ccc(C)c(NC(=O)CCc2nnc(CCC(C)C)n2C2CC2)c1 [Example F-92]" test_result="> 3 µM"

----------
pEC50 values, listed per item
Subject of test: human RORγ (Homo sapiens, UniProt P51449)
Construct: human, NM_005060.3 and from Ser253 to Lys518; expressed in transfected cells; host or cells: CHO cells (transient co-transfection with pG5-Luc reporter)
Assay: Luciferase reporter gene assay of inhibitory effect against RORγ transcriptional activity (GAL4-hRORγ plasmid in CHO cells)
Type: cell-based
Measurement setup: read-out: LUC EC50 hRORg
pEC50: −log10 of the molar value.
Measured attribute: pEC50

compound="CC(=O)N1C[C@H](C(=O)Nc2ccc(Cl)cc2C)[C@@H](c2nnc([C@H]3C[C@@H](CC(C)(C)F)C3)n2C2CC2)C1 [Example F-611]" measured_attribute=pEC50 test_result="> 5.52"
compound="Cc1ccc(NC(=O)C[C@H](CCO)c2nnc(C3CC4(CCC(F)(F)CC4)C3)n2C2CC2)c(C)c1 [Example F-619]" measured_attribute=pEC50 test_result="> 5.52"
compound="Cc1ccc(NC(=O)C2CN(CC(=O)O)CC2c2noc([C@H]3C[C@@H](CC(C)(C)C)C3)c2C2CC2)c(Cl)c1 (stereo partly shown) [Example F-687]" measured_attribute=pEC50 test_result="> 5.52"
compound="Cc1ccc(NC(=O)[C@H]2CN(CC(=O)N(C)C)C[C@@H]2c2nnc([C@H]3C[C@@H](CC(C)C)C3)n2C2CC2)c(C)c1 [Example F-656]" measured_attribute=pEC50 test_result="> 5.52"
compound="Cc1ccc(NC(=O)C[C@H](C[C@@H](C)O)c2nnc([C@H]3C[C@@H](CC(C)C)C3)n2C2CC2)c(C)c1 [Example F-560]" measured_attribute=pEC50 test_result="> 5.52"
compound="COC1C[C@H](C(=O)Nc2ccc(C)cc2C)[C@@H](c2nnc([C@H]3C[C@@H](CC(C)C)C3)n2C2CC2)C1 (single isomer, unassigned) [Example F-556]" measured_attribute=pEC50 test_result="> 5.52"
compound="Cc1ccc(NC(=O)C[C@H](CCO)c2noc([C@H]3C[C@@H](CC(C)C)C3)c2C2CC2)c(C)c1 [Example F-578]" measured_attribute=pEC50 test_result="> 5.52"
compound="Cc1cc(F)ccc1NC(=O)C[C@H](CCO)c1nnc([C@H]2C[C@@H](CC(F)(F)F)C2)n1C1CC1 [Example F-588]" measured_attribute=pEC50 test_result="< 5.52"
compound="CC(C)(C)C[C@H]1C[C@@H](c2onc([C@@H](CCC(=O)O)CC(=O)NS(=O)(=O)C3CC3)c2C2CC2)C1 [Example F-722]" measured_attribute=pEC50 test_result="< 5.52"
compound="Cc1ccc(NC(=O)[C@H]2CC(F)(F)C[C@@H]2c2nnc(-c3cc(CC(C)C)on3)n2C2CC2)c(C)c1 (racemic) [Example F-570]" measured_attribute=pEC50 test_result="> 5.52"
compound="CC(C)(C)C(F)(F)c1cc(-c2onc([C@H](CCC(=O)O)CC(=O)Nc3ccc(Cl)cc3F)c2C2CC2)no1 [Example E-80]" measured_attribute=pEC50 test_result="> 5.52"
compound="Cc1ccc(NC(=O)CC(c2nnc([C@H]3C[C@@H](CC(C)C)C3)n2C2CC2)C(F)(F)CO)c(C)c1 (mixture of isomers) [Example F-617]" measured_attribute=pEC50 test_result="> 5.52"
compound="COC1C[C@@H](C(=O)Nc2ccc(C)cc2C)[C@H](c2nnc([C@H]3C[C@@H](CC(C)C)C3)n2C2CC2)C1 (single isomer, unassigned) [Example F-557]" measured_attribute=pEC50 test_result="< 5.52"
